Sourced from PubChem BioAssay

# targetSystem: Pantothenate synthetase (Mycobacterium tuberculosis (strain ATCC 25618 / H37Rv))
# assayMethodText: Coupled enzyme confirmation of inhibitors against recombinant Mtb PanC (AID 375);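 also: 0% = full reaction with vehicle and 100% = no enzyme background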
# reportedConditions: coupled enzyme assay; at 10 µM, active compounds read high
quantity: inhibition (%)
Answers are plain numbers, in %.

// below: answered compounds
[
  {
    "compound": "COc1ccc(OC)c(NC(=O)CS(=O)(=O)c2ccccc2)c1",
    "targetSystem": "Pantothenate synthetase (Mycobacterium tuberculosis (strain ATCC 25618 / H37Rv))",
    "inhibition / %": 0
  },
  {
    "compound": "CN(Cc1cccs1)CC(O)COCc1ccco1 (configuration not stated)",
    "targetSystem": "Pantothenate synthetase (Mycobacterium tuberculosis (strain ATCC 25618 / H37Rv))",
    "inhibition / %": 0
  }
]

Provide each entry's inhibition from the list below.
1. CNC(=O)CN(c1ccc(C(C)C)cc1)S(C)(=O)=O
2. Cc1ccccc1NC(=O)CN1CCC(NC(=O)Nc2ccccc2)CC1
3. Cc1c(C#N)sc2nc(-c3ccccc3)nc(N3CCCC3)c12
4. NCC1(CC(=O)O)CCCCC1
5. CC(C(=O)N1c2ccc(F)cc2CCC1C)N1C(=O)c2ccccc2C1=O (configuration not stated)
6. O=S(=O)(NCc1cccnc1)c1cccc2nsnc12
7. Cc1ccc(C)c(CSc2nnc(CCN)o2)c1

Result:
[0, 4, 0, 3, 5, 12, 0]

Take each entry in turn and give its inhibition.
1. CCc1nn2c(N3CCOCC3)cc(C)nc2c1-c1ccc(F)cc1
2. Cc1nc2ncnn2c(N2CCC(C(=O)NCC3CCCO3)CC2)c1Cc1ccccc1 (configuration not stated)

Result:
1: 0; 2: 0

So for Cc1ccc2c(c1C)NC(C(=O)O)C1CC=CC21 (configuration not stated) , the logged inhibition turned out to be 0

* * *

# targetSystem: Pantothenate synthetase (Mycobacterium tuberculosis (strain ATCC 25618 / H37Rv))
# assayMethodText: Coupled enzyme confirmation of inhibitors against recombinant Mtb PanC (AID 375);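 also: 0% = full reaction with vehicle and 100% = no enzyme background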
# reportedConditions: coupled enzyme assay; at 10 µM, active compounds read high
quantity: inhibition (%)
Answers are plain numbers, in %.

[
  {
    "molecule": "Cc1nn(C)c(C)c1NC(=O)CCSc1nc(-c2ccco2)cc(C(F)(F)F)n1",
    "unitAnnotation": "%",
    "inhibition": 6
  },
  {
    "molecule": "CCOC(=O)N1CCN(C(=O)c2ccc3nc4ccsc4c(=O)n3c2)CC1",
    "unitAnnotation": "%",
    "inhibition": 2
  },
  {
    "molecule": "O=C(CCSc1ccccc1)N1CCOCC1",
    "unitAnnotation": "%",
    "inhibition": 0
  },
  {
    "molecule": "CCn1c(SCC(=O)Nc2ccc3c(c2)OCO3)nnc1-c1cnccn1",
    "unitAnnotation": "%",
    "inhibition": 0
  },
  {
    "molecule": "COc1cc(NC(=O)CSCc2cnn(-c3ccccc3)c2-n2cccc2)cc(OC)c1",
    "unitAnnotation": "%",
    "inhibition": 6
  }
]

Dear reader, for each entry below, please note its inhibition.
1. CCOC(=O)c1[nH]c(C)c(C(=O)N2CCN(c3ccc(F)cc3)CC2)c1C
2. COc1ccccc1NC(=O)CSc1nnnn1-c1ccc2c(c1)OCO2
3. CCn1c(CC(=O)Nc2cccc(OC)c2)nnc1SCC(=O)Nc1nccs1
4. C=CCOc1nc2c(c(=O)n(C)c(=O)n2C)n1C
5. O=C(C1CCN(S(=O)(=O)c2cccnc2)CC1)N1CCN(c2ccc(Cl)cc2)CC1
6. CCNC(=O)CC(=O)Nc1ccccc1C(=O)O
7. COc1ccc(CCn2c(O)c(C=NCCCN(C)C)c(=O)[nH]c2=O)cc1OC
8. CCN(CC)S(=O)(=O)c1ccc(NC(=O)CN(c2cccc(F)c2)S(C)(=O)=O)cc1

Result:
0
0
0
0
0
0
0
3

* * *

# targetSystem: Pantothenate synthetase (Mycobacterium tuberculosis (strain ATCC 25618 / H37Rv)) (UniProt P9WIL5)
# Sequence (P9WIL5 whole entry, looked up): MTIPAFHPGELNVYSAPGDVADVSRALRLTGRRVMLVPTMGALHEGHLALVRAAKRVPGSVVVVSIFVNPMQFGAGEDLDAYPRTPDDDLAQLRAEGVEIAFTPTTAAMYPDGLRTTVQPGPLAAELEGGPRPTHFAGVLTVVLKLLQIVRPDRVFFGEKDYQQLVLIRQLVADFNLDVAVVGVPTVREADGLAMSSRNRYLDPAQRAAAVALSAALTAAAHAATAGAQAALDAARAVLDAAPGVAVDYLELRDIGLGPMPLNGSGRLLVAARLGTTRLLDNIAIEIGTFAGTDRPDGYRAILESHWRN
# assayMethodText: Coupled enzyme confirmation of inhibitors against recombinant Mtb PanC (AID 375);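 also: 0% = full reaction with vehicle and 100% = no enzyme background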
# reportedConditions: coupled enzyme assay; at 10 µM, active compounds read high
Given measured inhibition, output 1 (yes) if it is greater than or equal to 2% and 0 (no) if not.

[
  {
    "compound": "O=S(=O)(c1ccccc1)N1CCN(C2CCCCCCC2)CC1",
    "group": "1 (yes)"
  },
  {
    "compound": "c1ccc2c(c1)nc(-c1ccncc1)n1nnnc21",
    "group": "1 (yes)"
  },
  {
    "compound": "COc1cccc(OCCSc2nnc3sc4ccccc4n23)c1",
    "group": "0 (no)"
  },
  {
    "compound": "COCc1[nH]nc2c1C(C1C=CCCC1)C(C#N)=C(N)O2 (stereo not drawn)",
    "group": "0 (no)"
  },
  {
    "compound": "CC(=O)N(CCc1ccccc1C)Cc1cc2cc3c(cc2[nH]c1=O)OCO3",
    "group": "1 (yes)"
  }
]

Query: Reported inhibition reaches at least 2% for "O=C(CSc1nnc(Cc2ccccc2)n1C1CCCCC1)N1CCOCC1" ?
Result: 1 (yes)

Query: Does inhibition meet or surpass 2% for "COc1ccccc1S(=O)(=O)Cc1ccc(C(=O)NCCN2CCCCCC2)o1" ?
Result: 0 (no)

* * *

For each record, write down the corresponding inhibition.
# targetSystem: Pantothenate synthetase (Mycobacterium tuberculosis (strain ATCC 25618 / H37Rv)) (UniProt P9WIL5)
# assayMethodText: Coupled enzyme confirmation of inhibitors against recombinant Mtb PanC (AID 375);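 also: 0% = full reaction with vehicle and 100% = no enzyme background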
# reportedConditions: coupled enzyme assay; at 10 µM, active compounds read high
Give bare numbers, in %.

Below: 5 molecules and their reported inhibition.
[
  {
    "molecule": "CCN1CCN(C(=O)Cn2ncc3ccsc3c2=O)CC1",
    "inhibition, %": 0
  },
  {
    "molecule": "Cn1ccnc1SCC(=O)Nc1ccc2ccccc2c1",
    "inhibition, %": 2
  },
  {
    "molecule": "COc1ccc(Cl)c(N2CCN(CCCNC(=O)Nc3ccc(C)cc3)CC2)c1",
    "inhibition, %": 0
  },
  {
    "molecule": "Cc1ccc(C(=O)CC2(O)C(=O)N(CN3CCOCC3)c3ccccc32)cc1 (stereo not given)",
    "inhibition, %": 7
  },
  {
    "molecule": "CCC(=O)Nc1ccc(Cl)c(NC(=O)C(C)C)c1",
    "inhibition, %": 3
  }
]

Dear colleague, could you please provide inhibition for the molecules listed below?
1. O=c1[nH]c(N2CCc3ccccc32)nc2c1CCCC2
2. O=C(NC1(C(F)(F)F)Oc2ccc(Cl)cc2O1)N1CCC2(CC1)OCCO2 (stereo not given)
3. CC(C)Sc1nc(N2CCCC2)c2c(c1C#N)CC(C)(C)OC2

Result:
0
1
0

Provide reported inhibition for each item, in the same order as listed.
1. COc1ccc(OC)c(NC(=O)c2cn(C)c(=O)c3cc(OC)c(OC)cc23)c1
2. COc1ccc(-c2noc(-c3ccccc3C(=O)Nc3cccnc3)n2)cc1

Result:
1
0

* * *

# targetSystem: Pantothenate synthetase (Mycobacterium tuberculosis (strain ATCC 25618 / H37Rv))
# assayMethodText: Coupled enzyme confirmation of inhibitors against recombinant Mtb PanC (AID 375);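 also: 0% = full reaction with vehicle and 100% = no enzyme background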
# reportedConditions: coupled enzyme assay; at 10 µM, active compounds read high
Record form. Attribute: inhibition. Fill in for each entry.
Answers are plain numbers, in %.

Below, 5 compounds whose answers are already recorded.
[
  {
    "compound": "O=C(CC1Oc2ccccc2NC1=O)NCCCN1CCOCC1 (stereo unspecified)",
    "targetSystem": "Pantothenate synthetase (Mycobacterium tuberculosis (strain ATCC 25618 / H37Rv))",
    "inhibition, %": 0
  },
  {
    "compound": "Cc1cccc(-n2nnnc2SCc2csc(-c3ccccc3)n2)c1",
    "targetSystem": "Pantothenate synthetase (Mycobacterium tuberculosis (strain ATCC 25618 / H37Rv))",
    "inhibition, %": 0
  },
  {
    "compound": "CCOC(=O)N1CCN(C(=O)CSc2nnc(Cc3ccccc3)o2)CC1",
    "targetSystem": "Pantothenate synthetase (Mycobacterium tuberculosis (strain ATCC 25618 / H37Rv))",
    "inhibition, %": 0
  },
  {
    "compound": "c1ccc2c(c1)Cc1cc(CN3CCOCC3)ccc1-2",
    "targetSystem": "Pantothenate synthetase (Mycobacterium tuberculosis (strain ATCC 25618 / H37Rv))",
    "inhibition, %": 3
  },
  {
    "compound": "COc1cccc2cc(C(=O)OC3CCN(C)CC3)c(=O)oc12",
    "targetSystem": "Pantothenate synthetase (Mycobacterium tuberculosis (strain ATCC 25618 / H37Rv))",
    "inhibition, %": 9
  }
]

Look at each compound and report its inhibition.
1. COCCn1c(C23CC4CC(CC(C4)C2)C3)n[nH]c1=S
2. CCC(C(=O)NC1CCCC1)N(Cc1ccco1)C(=O)Cn1nnc(-c2ccc(C)cc2)n1 (stereo unspecified)

Result:
0
5
